Experiment: Saturation solubility of OA in different oils and surfactants
Type: physicochemical
Details: thermodynamic from solid; in Tween 80, 24 h at 25 °C
Endpoint: solubility at 24 h
Quick note: unit goes after the number.

*Q* Name the recorded solubility at 24 h for CC1(C)CC[C@]2(C(=O)O)CC[C@]3(C)C(=CC[C@@H]4[C@@]5(C)CC[C@H](O)C(C)(C)[C@@H]5CC[C@]43C)[C@@H]2C1 .
*A* 4560 µg/mL

----------
Assay: Saturation solubility of OA in different oils and surfactants
Format: physicochemical
Details: oil or lipid, thermodynamic from solid; in Sunflower oil, 24 h at 25 °C
Endpoint: solubility at 24 h (mg/mL)
Report the figure in mg/mL without appending any unit label.

*Q* Name the recorded solubility at 24 h for CC1(C)CC[C@]2(C(=O)O)CC[C@]3(C)C(=CC[C@@H]4[C@@]5(C)CC[C@H](O)C(C)(C)[C@@H]5CC[C@]43C)[C@@H]2C1 [OA, Oleanolic acid] .
*A* 11.8

----------
Experiment: Saturation solubility of OA in different oils and surfactants
Assay type: physicochemical
Conditions: oil or lipid, thermodynamic from solid; in Triacetine, 24 h at 25 °C
Endpoint: solubility at 24 h (µg/mL)
Report the figure in µg/mL without appending any unit label.

*Q* Name the recorded solubility at 24 h for CC1(C)CC[C@]2(C(=O)O)CC[C@]3(C)C(=CC[C@@H]4[C@@]5(C)CC[C@H](O)C(C)(C)[C@@H]5CC[C@]43C)[C@@H]2C1 [OA, Oleanolic acid] .
*A* 3090

----------
Assay: Saturation solubility of OA in different oils and surfactants
Assay type: physicochemical
Conditions: organic solvent or mixture, thermodynamic from solid; in Transcutol HP, 24 h at 25 °C
Endpoint: solubility at 24 h (mg/mL)
Report the figure in mg/mL without appending any unit label.

*Q* Name the recorded solubility at 24 h for CC1(C)CC[C@]2(C(=O)O)CC[C@]3(C)C(=CC[C@@H]4[C@@]5(C)CC[C@H](O)C(C)(C)[C@@H]5CC[C@]43C)[C@@H]2C1 .
*A* 41

----------
Test: Saturation solubility of OA in different oils and surfactants
Assay type: physicochemical
Conditions: thermodynamic from solid; in Cremophor EL, 24 h at 25 °C
Endpoint: solubility at 24 h (mg/mL)
Report the figure in mg/mL without appending any unit label.

*Q* Name the recorded solubility at 24 h for CC1(C)CC[C@]2(C(=O)O)CC[C@]3(C)C(=CC[C@@H]4[C@@]5(C)CC[C@H](O)C(C)(C)[C@@H]5CC[C@]43C)[C@@H]2C1 .
*A* 28.3

----------
Experiment: Saturation solubility of OA in different oils and surfactants
Assay type: physicochemical
Settings: oil or lipid, thermodynamic from solid; in Lauroglycole 90, 24 h at 25 °C
Protocol: The solubility of OA in different vehicles was defined by adding an excess of OA to 2 mL of each of the tested solvents/tensides: Water, Capmul PG-8/NF, Capmul PG-12/NF, Capryol 90, Captex 300, Captex 355, Cremophor EL, Etyl Oleate, Isoprpyl myristate, Labrafac lipophile, Labrafilm 1944, Labrafilm 2125, Labrasol, Labrasol ALF, Lauroglycol 90, Nigella Oil, PEG400, Soybean Oil, Sunflower Oil, Transcutol, Triacetine, Tween 20 and Tween 80. […]
Endpoint: solubility at 24 h (mg/mL)
Report the figure in mg/mL without appending any unit label.

*Q* Name the recorded solubility at 24 h for CC1(C)CC[C@]2(C(=O)O)CC[C@]3(C)C(=CC[C@@H]4[C@@]5(C)CC[C@H](O)C(C)(C)[C@@H]5CC[C@]43C)[C@@H]2C1 [OA, Oleanolic acid] .
*A* 10.8
